- Measurement Notes: Toxicity in rats, p.o.
- Details: rat, in vivo, po
Quantity Measured: LD50 (mg/kg)
# value in mg/kg; strip the unit string

Given the compound COc1ccc2c(c1)c(CC(=O)O)c(C)n2C(=O)c1ccc(Cl)cc1 [Indometacin, reference compound] , what is its reported LD50?
38

----------
- Measurement Notes: Toxicity in mice, p.o.
- Details: mouse, in vivo, po, 19 mg/kg
Quantity Measured: mortality
Value and unit, in that order.

Given the molecule COc1ccc2c(c1)c(CC(=O)O)c(C)n2C(=O)c1ccc(Cl)cc1 [Indometacin, reference compound] , what is its reported mortality?
50%

----------
- Measurement Notes: Toxicity in rats, p.o.
- Details: rat, in vivo, po, 4600 mg/kg
Quantity Measured: mortality (%)
# value in %; strip the unit string

Given the compound O=c1c2ccccc2[se]n1-c1ccccc1 [2-Phenyl-1.2-benzisoselenazol-3(2H)-one, 2-phenyl-1.2-benzisoselenazol-3(2H)-one] , what is its reported mortality?
0

----------
- Measurement Notes: Toxicity in rats, p.o.
- Details: rat, in vivo, po, 38 mg/kg
Quantity Measured: mortality (%)
# value in %; strip the unit string

Given the molecule COc1ccc2c(c1)c(CC(=O)O)c(C)n2C(=O)c1ccc(Cl)cc1 [Indometacin, reference compound] , what is its reported mortality?
50

----------
- Measurement Notes: Toxicity in mice, p.o.
- Details: mouse, in vivo, po
Quantity Measured: LD50 (mg/kg)
# value in mg/kg; strip the unit string

Given the compound COc1ccc2c(c1)c(CC(=O)O)c(C)n2C(=O)c1ccc(Cl)cc1 [Indometacin, reference compound] , what is its reported LD50?
19
